assay: CEETOX_H295R_CORTIC: CeeTox H295R High-throughput Steroidogenesis Assay for Corticosterone (CORTIC) (AID 2283437); conditions: actives raise or lower the signal;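 note: corticosterone secreted into medium quantified by mass spectrometry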
Activity calls are given as the source filed them. Rule for the calls: active = hit-call score of the fitted dose curve at least 0.9, where 1 is the maximum; inactive = score below 0.9.
Result category, one only: 1 for active, 0 for inactive

The examples below pair each entry with its known result.
Cc1c(F)c(F)c(COC(=O)C2C(/C=C(\Cl)C(F)(F)F)C2(C)C)c(F)c1F (stereo unspecified)	0
CC(C)Oc1cc(-n2nc(C(C)(C)C)oc2=O)c(Cl)cc1Cl	0
CCCC1COC(Cn2cncn2)(c2ccc(Cl)cc2Cl)O1 (stereo unspecified)	1
CCNc1nc(Cl)nc(NC(C)C)n1	0
C=CCC1=C(C)C(OC(=O)C2C(C=C(C)C)C2(C)C)CC1=O (stereo unspecified)	0
CC1=C(C(=O)Nc2ccccc2)SCCO1	0
CCCCNC(=O)n1c(NC(=O)OC)nc2ccccc21	0
CCOC(=O)C(Cl)Cc1cc(-n2nc(C)n(C(F)F)c2=O)c(F)cc1Cl (stereo unspecified)	0

[Q] Called result for CC1COC(Cn2cncn2)(c2ccc(Oc3ccc(Cl)cc3)cc2Cl)O1 (stereo unspecified)
[A] 0

[Q] Per the records of this test, what outcome belongs to `CCOc1cc(Oc2ccc(C(F)(F)F)cc2Cl)ccc1[N+](=O)[O-]` ?
[A] 0

[Q] Dear all, I need the recorded test outcome for `CCOP(=S)(OCC)SCn1c(=O)oc2cc(Cl)ccc21` , thank you.
[A] 1

----------
read-out: CYP4A11 (gene 1579); assay: LTEA_HepaRG_CYP4A11: Life Technologies and Expression Analysis (LTEA) Assay for CYP4A11 using HepaRG (AID 2283486); settings: mRNA level, 48 h; actives raise or lower the signal
Active and inactive are the calls of the source. The calls were made as follows: active = hit-call score of the fitted dose curve at least 0.9, where 1 is the maximum; inactive = score below 0.9.
Bench note: report the call from True (active), False (inactive)

COP(N)(=O)SC (stereo not given)	False
N#Cc1nn(-c2c(Cl)cc(C(F)(F)F)cc2Cl)c(N)c1S(=O)C(F)(F)F (stereo not given)	True
N#Cc1cc(Br)c(O)c(Br)c1	True

[Q] Call for entry CCOC(=O)CC(SP(=S)(OC)OC)C(=O)OCC (stereo not given) :
[A] False

----------
read-out: Forkhead box O1 (FOXO1), FOXO1 (gene 2308); experiment: LTEA_HepaRG_FOXO1: Life Technologies and Expression Analysis (LTEA) Assay for Forkhead box O1 (FOXO1) using HepaRG (AID 2283456); settings: mRNA level, 48 h; actives raise or lower the signal
The source made the active and inactive calls. Rule for the calls: active = hit-call score of the fitted dose curve at least 0.9, where 1 is the maximum; inactive = score below 0.9.
measuredAttribute: AC50

Recorded results for 5 compounds are shown here.
CCNc1nc(Cl)nc(NC(C)C)n1	inactive
C=CC1(C)OC(=O)N(c2cc(Cl)cc(Cl)c2)C1=O (stereo not given)	inactive
CS/C(C)=N/OC(=O)N(C)SN(C)C(=O)O/N=C(\C)SC	inactive
C#CCOS(=O)OC1CCCCC1Oc1ccc(C(C)(C)C)cc1 (stereo not given)	32 µM (active)
O=C(O)c1nc(Cl)ccc1Cl	inactive

[Q] So what does the record say about AC50 for `Cc1cc(Cl)ccc1OCC(=O)O` ?
[A] inactive

[Q] # get_value(readout='AC50', item= CC(C)C1(C)N=C(c2nc3ccccc3cc2C(=O)O)NC1=O (stereo not given) )
[A] inactive

[Q] Find the recorded AC50 belonging to `CON(C)C(=O)Nc1ccc(Cl)c(Cl)c1` and report it.
[A] inactive

[Q] For the compound OC(c1ccc(Cl)cc1)(c1cncnc1)c1ccccc1Cl (stereo not given) , what AC50 is on record?
[A] 79 µM (active)

[Q] Reported AC50, compound N#CC(CCc1ccc(Cl)cc1)(Cn1cncn1)c1ccccc1 (stereo not given) : ____
[A] 77.8 µM (active)

----------
read-out: Monokine induced gamma interferon (MIG), CXCL9 (gene 4283); assay: BSK_hDFCGF_MIG: BioMAP Diversity Plus: hDFCGF Assay for Monokine induced gamma interferon (MIG) Biomarker Activity (AID 2283063); settings: primary human foreskin fibroblasts; actives raise or lower the signal
Calls of active or inactive are those of the source. How the source made its calls: active means hit-call score of the fitted dose curve at least 0.9, where 1 is the maximum; inactive means score below 0.9.
Returns: one label drawn from true for active, false for inactive

The examples below pair each entry with its known result.
CCCCNC(=O)n1c(NC(=O)OC)nc2ccccc21	false
COC(=O)C(C)Oc1ccc(Oc2ccc(Cl)cc2Cl)cc1 (centres undefined)	false
Oc1ccccc1-c1ccccc1	false
C=CCC1=C(C)[C@@H](OC(=O)[C@@H]2[C@@H](C=C(C)C)C2(C)C)CC1=O	true
N#Cc1nn(-c2c(Cl)cc(C(F)(F)F)cc2Cl)c(N)c1S(=O)C(F)(F)F (centres undefined)	false
Cc1ccc(-c2c(Cl)nc(C#N)n2S(=O)(=O)N(C)C)cc1	false
O=C(O)c1nc(Cl)ccc1Cl	false
CC(C)C1(C)N=C(c2nc3ccccc3cc2C(=O)O)NC1=O (centres undefined)	false

[Q] Could you please tell me the result logged for `CNC(=O)ON=CC(C)(C)SC` in this assay?
[A] false

[Q] Just curious, what result did `CN(C)C(=S)SSC(=S)N(C)C` get here?
[A] true

[Q] Called result for `CC(C)Oc1cc(-n2nc(C(C)(C)C)oc2=O)c(Cl)cc1Cl`
[A] false

[Q] Tell me the assay call for `O=C(O)COc1nc(Cl)c(Cl)cc1Cl` please.
[A] false

[Q] Outcome logged for `COc1nc(C)nc(NC(=O)NS(=O)(=O)c2ccccc2CCC(F)(F)F)n1` in this assay:
[A] false

[Q] Status in this test for `COC(=O)N(OC)c1ccccc1COc1ccn(-c2ccc(Cl)cc2)n1` ?
[A] false

----------
read-out: ABC Transporter (ABCC3), ABCC3 (gene 8714); assay: LTEA_HepaRG_ABCC3: Life Technologies and Expression Analysis (LTEA) Assay for ABC Transporter (ABCC3) using HepaRG (AID 2283462); conditions: mRNA level, 48 h; actives raise or lower the signal
Active and inactive are the calls of the source. Rule for the calls: active = hit-call score of the fitted dose curve at least 0.9, where 1 is the maximum; inactive = score below 0.9.
Mark one answer only. Choices: class 1 for active, class 0 for inactive

// below: answered compounds
C=CCC1=C(C)[C@@H](OC(=O)[C@@H]2[C@@H](C=C(C)C)C2(C)C)CC1=O	class 1
Fc1ccc(Oc2ccnc3cc(Cl)cc(Cl)c23)cc1	class 0

Now turn to the next compound.
[Q] GET /call?item= `CNC(=S)S` returns the recorded outcome of this test.
[A] class 0

----------
read-out: sulfotransferase (SULT2A), SULT2A1 (gene 6822); test: CLD_SULT2A_48hr: CellzDirect (CLD) Gene Expression Assay for sulfotransferase (SULT2A) at 48 hours (AID 2283710);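 note: hits raise SULT2A1 transcript above the 0.2% DMSO vehicle baseline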
Records with an inconclusive call do not appear. Activity calls are given as the source filed them. Rule for the calls: active = hit-call score of the fitted dose curve at least 0.9, where 1 is the maximum; inconclusive = response in the unintended direction; inactive = score below 0.9.
A correct response names exactly one class from active, inactive

CCOc1cc(Oc2ccc(C(F)(F)F)cc2Cl)ccc1[N+](=O)[O-]	inactive
CCCN(CCC)c1c([N+](=O)[O-])cc(S(N)(=O)=O)cc1[N+](=O)[O-]	active
CCNc1nc(Cl)nc(NC(C)C)n1	inactive

[Q] Please indicate how the test categorized `COc1cnc(OC)n2nc(NS(=O)(=O)c3c(OCC(F)F)cccc3C(F)(F)F)nc12` .
[A] inactive

[Q] Outcome? CCON=C(CC)C1=C(O)CC(c2c(C)cc(C)cc2C)CC1=O (stereo unspecified)
[A] inactive

[Q] Which outcome was entered for the compound `CCOP(=S)(OCC)SCn1c(=O)oc2cc(Cl)ccc21` in this test?
[A] inactive

----------
assay: APR_HepG2_CellCycleArrest_24hr: Apredica 24-hour HepG2 Assay for Cell Cycle Arrest (AID 2282905); conditions: imaging, actives raise or lower the signal;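 note: cell cycle arrest scored as ratio of 2N to 4N nuclear DNA content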
Calls of active or inactive are those of the source. Rule for the calls: active = hit-call score of the fitted dose curve at least 0.9, where 1 is the maximum; inactive = score below 0.9.
Please answer using one outcome listed in active, inactive

Worked examples, 6 compounds total:
CCCCOC(=O)c1ccccc1C(=O)OCCCC	inactive
O=C(Nc1ccccc1)Nc1ccnc(Cl)c1	active
Cc1cc(Cl)ccc1OCC(=O)O	inactive
CCOc1cc(Oc2ccc(C(F)(F)F)cc2Cl)ccc1[N+](=O)[O-]	inactive
CCc1nn(C)c(C(=O)NCc2ccc(C(C)(C)C)cc2)c1Cl	inactive
O=C(O)c1nc(Cl)ccc1Cl	inactive

[Q] I'd appreciate the recorded outcome for `COc1ccc(C(c2ccc(OC)cc2)C(Cl)(Cl)Cl)cc1` from this test.
[A] inactive

[Q] So what was the verdict on CCOC(=O)C(Cl)Cc1cc(-n2nc(C)n(C(F)F)c2=O)c(F)cc1Cl (configuration not stated) in this test?
[A] inactive

----------
target: Estrogen receptor (Homo sapiens) (UniProt P03372); experiment: OT_ERa_GFPERaERE_0480: Odyssey Thera (OT) 8-hour HeLa Transcription Induction Assay for Estrogen Receptor (AID 2283381)
Sequence (P03372 whole entry, looked up): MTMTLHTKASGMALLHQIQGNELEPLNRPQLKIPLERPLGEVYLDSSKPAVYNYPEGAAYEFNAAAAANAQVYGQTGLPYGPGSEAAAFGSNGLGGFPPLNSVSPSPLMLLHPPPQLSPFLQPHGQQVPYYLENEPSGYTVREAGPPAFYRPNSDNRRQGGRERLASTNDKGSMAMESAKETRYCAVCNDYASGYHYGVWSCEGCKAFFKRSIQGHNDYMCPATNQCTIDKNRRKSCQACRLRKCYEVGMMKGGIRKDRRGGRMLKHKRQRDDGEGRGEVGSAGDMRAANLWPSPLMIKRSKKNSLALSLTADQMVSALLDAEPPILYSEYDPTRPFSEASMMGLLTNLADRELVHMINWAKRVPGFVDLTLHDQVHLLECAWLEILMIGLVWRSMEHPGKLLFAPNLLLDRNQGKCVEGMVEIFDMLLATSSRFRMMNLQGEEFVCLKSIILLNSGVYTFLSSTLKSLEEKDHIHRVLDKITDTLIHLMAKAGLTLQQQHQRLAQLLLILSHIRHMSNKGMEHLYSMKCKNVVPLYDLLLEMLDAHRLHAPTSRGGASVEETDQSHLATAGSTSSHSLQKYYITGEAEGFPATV
Active and inactive are the calls of the source. The calls were made as follows: active = hit-call score of the fitted dose curve at least 0.9, where 1 is the maximum; inactive = score below 0.9.
Output constraint: value belongs to active, inactive

Please review the entries below; each comes with its answer.
CC(C)C1(C)N=C(c2nc3ccccc3cc2C(=O)O)NC1=O (stereo not given)	inactive
N#Cc1nn(-c2c(Cl)cc(C(F)(F)F)cc2Cl)c(N)c1S(=O)C(F)(F)F (stereo not given)	inactive

Here's the next entry for you.
[Q] How was `CC(C)Oc1cc(-n2nc(C(C)(C)C)oc2=O)c(Cl)cc1Cl` classified in this test?
[A] inactive
